Measured values drawn from ChEMBL document CHEMBL3507680 for this set.

assay: Human HepG2 cell viability assay in 384 well format; format: toxicity, cell-based; set-up: dose 125 nL, time 70.5 hour; concentration not given beside the values; settings: HepG2 cells, read-out: Inhibition
Exercise: state measured cytotoxicity at 70.5 h for each of the compounds provided.
Answers are plain numbers, in %.

Use these answered entries as a reference point.
{"compound": "Cc1cc(C)n(C2CN(CC(=O)N(C)Cc3cnn(C)c3)C2)n1", "value measured": -7}
{"compound": "OCC(O)CSCc1nnc(-c2cccc(F)c2)o1 (configuration not stated)", "value measured": -14.7}
{"compound": "CCOC(C)c1nc(COc2nc(C)no2)cs1 (configuration not stated)", "value measured": -3.02}
{"compound": "CC(C)CN(CCc1ccccc1)Cc1nc2c(cnn2C)c(=O)[nH]1", "value measured": -3.12}
{"compound": "CC1CCN(C(=O)c2cnc3cc(C(=O)N(C)C)n(C)c3c2)CC1", "value measured": 6.93}

Could I get cytotoxicity at 70.5 h for every one of these entries?
1. CC(C)Cc1nc(OCC#N)c(C#N)c2c1CCC2
2. Cc1nc(CC(C)C)sc1C(=O)N1CCC1
3. O=S(=O)(Nc1cnn(C2CCOCC2)c1)c1ccc(F)c(F)c1
4. CCc1nc(C)c(CN2CCCC(c3nn(C)c(=O)n3CC)C2)[nH]1 (configuration not stated)
5. O=C(NC1CCN(CC2CCCC2)C1)N1CCC(OCC2CC2)CC1 (configuration not stated)
6. O=C(CCCc1nc2ccccc2[nH]1)N1CCCC1c1ccccn1 (configuration not stated)
7. CCC1c2ccsc2CCN1Cc1cc2c(cc1OC)OCCO2 (configuration not stated)

Result string:
[-2.63, -2.02, 1.31, -6.96, 6.83, 0.793, 1.24]

====

Consider the following compounds; for each one, report its cytotoxicity at 70.5 h.
assay: Human HepG2 cell viability assay in 384 well format; format: toxicity, cell-based; design: dose 125 nL, time 70.5 hour; concentration not given beside the values; settings: HepG2 cells, read-out: Inhibition
Give bare numbers, in %.

{"compound": "Cn1cc(CCNC(=O)N2CCCC(Cc3nccn3C)C2)cn1 (stereo not drawn)", "units label": "%", "cytotoxicity at 70.5 h": -0.841}
{"compound": "Cc1nc2c(c(C)c1CC(=O)NCc1cccc(C#N)c1)c(=O)[nH]n2C", "units label": "%", "cytotoxicity at 70.5 h": -2.99}
{"compound": "C[C@@H]1CN(Cc2ccsc2)C[C@]12CCN(Cc1cccnc1)C2=O", "units label": "%", "cytotoxicity at 70.5 h": 39}

Respectfully, I request cytotoxicity at 70.5 h for each entry included below.
1. CC(NCC1CCN(CCO)CC1)c1ccc(F)c(Cl)c1 (stereo not drawn)
2. Cc1nc(CCNc2nc(N(C)C)nc3c2CCCC3)cc(=O)[nH]1
3. Cc1noc(C2CCN(C(=O)CCNS(C)(=O)=O)CC2)n1
4. O=C(COCc1ccccc1Cl)N1CCCC(n2ccnc2)C1 (stereo not drawn)

Result string:
[0.00897, -10.9, -17.2, 17.5]

====

test: Human HepG2 cell viability assay in 384 well format; type: toxicity, cell-based; parameters: dose 125 nL, time 70.5 hour; concentration not given beside the values; settings: HepG2 cells, read-out: Inhibition
readout name: cytotoxicity at 70.5 h (%)
Answers are plain numbers, in %.

Example entries and their recorded answers appear below.
{"compound": "Cc1cccc(C(=O)N2CC[C@@H]3CN(c4ncccn4)CCO[C@@H]3C2)c1", "units label": "%", "cytotoxicity at 70.5 h": -9.91}
{"compound": "c1ccc(OC[C@]23COC[C@H]2CN(c2ncccn2)C3)nc1", "units label": "%", "cytotoxicity at 70.5 h": -9.18}
{"compound": "O=C(NC1CCCC1)C1Cc2nc(-c3ccsc3)sc2N1CC1CC1 (stereo unspecified)", "units label": "%", "cytotoxicity at 70.5 h": 9.52}
{"compound": "Cc1ccc(NC2CCN(C(=O)CCc3ccco3)CC2)nn1", "units label": "%", "cytotoxicity at 70.5 h": -9.84}
{"compound": "COc1ccccc1CC1CCN(C(=O)CCc2ccccn2)CC1", "units label": "%", "cytotoxicity at 70.5 h": -8.07}

Record cytotoxicity at 70.5 h per entry; entries follow.
1. O=S(=O)(Cc1nc(C2CC2)no1)c1cc(F)ccc1F
2. O=C1NC[C@@]2(C(=O)O)CN(Cc3cccc(OC4CCCC4)c3)C[C@@H]12
3. Cc1nc2c(c(=O)n1C)CCN(C(=O)CCc1ccccc1O)CC2
4. CCNC(=O)CN1CCOC(c2ccccc2C(F)(F)F)C1 (stereo unspecified)
5. NC(=O)c1cnc(NC2CCN(c3ccccc3)CC2)c(Cl)c1
6. Cc1csc(CCNC(=O)c2cc3c(nc2O)CCC(C)C3)n1 (stereo unspecified)

Result string:
1. -12.2
2. -3
3. -6.87
4. 0.292
5. -1.28
6. -8.45

====

assay: Human HepG2 cell viability assay in 384 well format; type: toxicity, cell-based; set-up: dose 125 nL, time 70.5 hour; concentration not given beside the values; details: HepG2 cells, read-out: Inhibition
readout name: cytotoxicity at 70.5 h (%)
One number for each entry, in %.

{"compound": "CN(C)C(Cn1ccnc1-c1ccccc1C(=O)O)c1ccccc1Cl (stereo not drawn)", "cytotoxicity at 70.5 h [%]": 10.5}
{"compound": "O=C(c1ccccc1)N1C[C@@H]2CCCO[C@@H]2[C@H](N2CCCC2)C1", "cytotoxicity at 70.5 h [%]": -4.22}
{"compound": "CCN1CCOC(CNc2nccc(C(F)(F)F)n2)C1 (stereo not drawn)", "cytotoxicity at 70.5 h [%]": -6.79}

State the recorded cytotoxicity at 70.5 h for every item in the following list.
1. CCc1c(C(=O)Nc2ccc(F)c(C(=O)NC)c2)cnn1CC(C)C
2. Cn1cnc(-c2nc(C(=O)NCCN3CCCC3)c3ccccn23)c1
3. CCCNC(=O)CNc1cc(C(=O)NCC(F)(F)F)cc(F)c1C
4. Cc1cccc(CN2CCOCC3(CCN(C4CCOCC4)C3)C2)n1 (stereo not drawn)
5. O=C(O)[C@@H]1CCN(C(=O)c2ccccn2)[C@@H]1c1ccc(F)cc1
6. O=C(c1ccco1)N1CC[C@@H]2O[C@H](COCCN3CCCC3)CC[C@@H]21
7. CCOC(C)c1noc(CN(C)C(=O)c2ccncc2)n1 (stereo not drawn)

Result string:
1. 0.0762
2. -5.67
3. -6.37
4. 7.65
5. -7.21
6. 10.5
7. 0.244

Please state, for each entry, its recorded cytotoxicity at 70.5 h.
1. Cc1ccc(S(=O)(=O)NC(=O)c2c(C)noc2C(C)C)cc1C
2. Cc1nnc(CN(C)C2CCN(Cc3nc4ccccc4n3C)C2)o1 (stereo not drawn)

Result string:
1. 0.282
2. -1.55

Below are 3 compounds. Give each one its cytotoxicity at 70.5 h.
1. COCCN(C)CC(=O)N1C[C@@H](NC(C)=O)[C@H](c2ccc(OC)cc2)C1
2. Cc1cnc(CN(C)C2CCN(CC(=O)Nc3nccs3)C2)o1 (stereo not drawn)
3. Cc1nc(CN(C)C2CCN(CCc3cccs3)C2)no1 (stereo not drawn)

Result string:
-17.6
-5.94
23.7

Could you report cytotoxicity at 70.5 h for every entry in the following list?
1. CN(C)CCN1CCOCC12CCN(C(=O)C1CC1)CC2
2. CCc1cc(N[C@H]2CCC[C@H]2CO)n2nccc2n1
3. Cc1cccc(CN(C)Cc2nc3c(cnn3C)c(=O)[nH]2)c1
4. O=C(NCc1ccco1)[C@@H]1CCO[C@@H]2CCN(CC3CC3)C[C@@H]21
5. Cn1c(-c2ccccc2Cl)nc2cc(C(=O)NCC3(CO)CC3)cnc21
6. NCC(c1ccccc1)N1CCc2sccc2C1 (stereo not drawn)
7. CC1CCN(C(CNC(=O)Cn2cccn2)c2cccs2)CC1 (stereo not drawn)

Result string:
1: -10.1; 2: 6; 3: -14.2; 4: -6.8; 5: -10; 6: 5.18; 7: -7.96

Record `c1cc(-c2noc(C3CCC3)n2)cc(N2CCCCC2)n1` . Reported cytotoxicity at 70.5 h: 16.5

====

assay: Human HepG2 cell viability assay in 384 well format; assay type: toxicity, cell-based; set-up: dose 125 nL, time 70.5 hour; concentration not given beside the values; details: HepG2 cells, read-out: Inhibition
Give cytotoxicity at 70.5 h for every item shown.
Numbers only, in %.

Okay, here is my list. What is cytotoxicity at 70.5 h for each of these?
1. COCC(=O)NC(C)Cc1cccc(Cl)c1 (stereo unspecified)
2. Cc1noc(C)c1CN1CCN(CC2CC2)c2ncccc2C1
3. CC(C)CN1CCCC1c1ccc(C(=O)Nc2cn(C)nn2)s1 (stereo unspecified)
4. CCc1cc(CN(C)C(=O)CN2CC(c3ccccc3)CC2=O)on1 (stereo unspecified)
5. CC(Nc1ccc(CN2CCCC2=O)cc1)c1ccc(C#N)cc1 (stereo unspecified)
6. COc1ccc2c(c1)c(-c1nc(C)ncc1CN)cn2C

Result string:
[5.75, -5.96, -0.657, 3.32, -5.25, 13.5]
